Every entry's value here was drawn from ChEMBL document CHEMBL4689842.

Hi there, I'd appreciate the recorded Population Tubulin-Different-Phenotype (%) for every entry that follows.
Tested on: U2OS
EXPERIMENT DESCRIPTION: Multiplex assay against U2OS
Format: toxicity, cell-based
PARTICULARS: human, 24 h, 10 µM, compound concentration 10 uM, replicate 1
Numeric only. Scale: %

(Q) Fill in reported Population Tubulin-Different-Phenotype (%) for this entry: COc1cc2ncnc(Nc3ccc(F)c(Cl)c3)c2cc1NC(=O)/C=C/CN1CCCCC1 [DACOMITINIB ANHYDROUS]
(A) 14

(Q) Output Population Tubulin-Different-Phenotype (%) of O=C(Cc1ccc(-c2ccc(OCCN3CCOCC3)cc2)cn1)NCc1ccccc1
(A) 11

(Q) Quickly give me recorded Population Tubulin-Different-Phenotype (%) for COc1ccc(S(=O)(=O)N(CCO)c2ccccc2CN(C)C/C=C/c2ccc(Cl)cc2)cc1.O=P(O)(O)O
(A) 22

(Q) Determine its reported Population Tubulin-Different-Phenotype (%): O=C(Nc1ccc(-c2ccnc(Nc3ccc(N4CCOCC4)cc3)n2)cc1)[C@@H]1CCCN1
(A) 97

(Q) # return recorded Population Tubulin-Different-Phenotype (%) for entry Cn1nc(C(F)(F)F)cc1-c1cnc(N2CCc3cc(S(=O)(=O)Nc4c(F)cc(Cl)cc4F)cc(N4CCCC4=O)c32)nc1
(A) 29

(Q) Give Population Tubulin-Different-Phenotype (%) for the following compound: CCCS(=O)(=O)c1nc(NC2CC2)cc(-c2ccc3c(ccn3C3CC(C)(C)NC(C)(C)C3)c2)n1
(A) 100

(Q) Give me measured Population Tubulin-Different-Phenotype (%), please, for this compound: O=C1N/C(=N/c2ccccc2F)S/C1=C\c1ccc(C(=O)O)cc1
(A) 5

(Q) Return the recorded Population Tubulin-Different-Phenotype (%) value; entry: CN1CCN(C(=O)C(C)(C)c2ccc(C(=O)Nc3cn4cc(-c5cc(C(C)(C)C)cc(C(C)(C)C)c5)ccc4n3)cc2)CC1
(A) 39

* * *

Tested on: U2OS
EXPERIMENT DESCRIPTION: Multiplex assay against U2OS
Type: toxicity, cell-based
PARTICULARS: human, 24 h, 10 µM, compound concentration 10 uM, replicate 1
Output satisfied for records whose Population Mitochondria Different-Phenotype (%) is lower than 80%, not satisfied for records at or above 80%.

(Q) Does the reported Population Mitochondria Different-Phenotype (%) of Cl.O=c1c2cccn2c2ccccc2n1CCCN1CCC(c2ccc(Cl)cc2)CC1 stay below 80%?
(A) not satisfied

(Q) Given COCC(=O)NC/C=C/c1ccc2ncnc(Nc3ccc(Oc4ccc(C)nc4)c(C)c3)c2c1 , is recorded Population Mitochondria Different-Phenotype (%) strictly lower than 80%?
(A) not satisfied

(Q) Consider CCN1CCN(Cc2ccc(Nc3ncc(F)c(-c4cc(F)c5nc(C)n(C(C)C)c5c4)n3)nc2)CC1.CS(=O)(=O)O . Does its Population Mitochondria Different-Phenotype (%) lie strictly below 80%?
(A) not satisfied

(Q) In plain terms, does CN(C)C(=O)C(CCN1CCC(O)(c2ccc(Cl)cc2)CC1)(c1ccccc1)c1ccccc1.Cl [LOPERAMIDE HYDROCHLORIDE] come in under 80% for Population Mitochondria Different-Phenotype (%)?
(A) not satisfied

(Q) Bench note: check whether CCCS(=O)(=O)c1nc(NC2CC2)cc(-c2ccc3c(ccn3C3CC(C)(C)NC(C)(C)C3)c2)n1 shows Population Mitochondria Different-Phenotype (%) below 80%
(A) satisfied

(Q) Here's an entry: O=C(Nc1cccnn1)N1CCC(=Cc2cccc(Oc3ccc(C(F)(F)F)cn3)c2)CC1 . Is its Population Mitochondria Different-Phenotype (%) below 80%?
(A) satisfied

(Q) Is 80% strictly greater than the compound's reported Population Mitochondria Different-Phenotype (%)? compound: CCN1CCN(c2ccc(Nc3cc(N(C)C(=O)Nc4c(Cl)c(OC)cc(OC)c4Cl)ncn3)cc2)CC1
(A) satisfied
